Entry source: patent US10703746B2

- tested-on: IDH1 R132C (Homo sapiens, UniProt O75874, R132C)
- Sequence (O75874 whole entry R132C): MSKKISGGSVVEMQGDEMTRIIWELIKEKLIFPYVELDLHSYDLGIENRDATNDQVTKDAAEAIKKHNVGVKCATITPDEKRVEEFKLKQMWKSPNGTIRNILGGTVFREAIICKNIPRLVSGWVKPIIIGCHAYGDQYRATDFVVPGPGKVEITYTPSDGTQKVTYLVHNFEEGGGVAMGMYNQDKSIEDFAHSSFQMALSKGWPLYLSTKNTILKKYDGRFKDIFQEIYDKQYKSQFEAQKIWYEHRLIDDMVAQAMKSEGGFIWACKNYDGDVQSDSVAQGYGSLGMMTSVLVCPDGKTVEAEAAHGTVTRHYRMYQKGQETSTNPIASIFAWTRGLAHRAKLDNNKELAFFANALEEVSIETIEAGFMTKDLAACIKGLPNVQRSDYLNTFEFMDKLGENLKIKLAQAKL
- measurement-protocol: IDH1 R132C enzymatic assay (NADPH depletion coupled to diaphorase/resazurin)
- Type: biochemical
- study-conditions: IDH1 R132C enzymatic inhibition, IC50 class
pIC50: −log10 of the molar value.
Examples of compounds with documented pIC50 follow.

These recorded examples may help you get a feel for the data.
smiles_entry=CCc1cccc(CC)c1-n1c(CC(C)C)c(C(=O)N2CCNCC2)cc(-c2nc(-c3ccc(Cl)cc3)c(C(=O)OC)s2)c1=O test_result="> 6.52"
smiles_entry=CCc1cccc(CC)c1-n1c(C(C)C)c(C(=O)N2CCN[C@H](CO)C2)cc(-c2nc(-c3ccc(Cl)cc3)cs2)c1=O test_result="6.00 to 6.52"
smiles_entry=CCc1cccc(CC)c1-n1c(C=C(C)C)c(C(=O)N2CCNCC2)cc(-c2nc(-c3ccc(C(F)F)cc3)cs2)c1=O test_result="> 6.52"

--- query ---
-- ask Identify measured pIC50 associated with COc1ccc(OC)c(-n2c3c(cc(-c4cc(-c5ccccc5)[nH]n4)c2=O)C(=O)CC(C)(C)C3)c1
-- reply 4.70 to 5.30
